The measured values listed here are drawn from ChEMBL document CHEMBL1124186.

As shown below, each of these compounds has a reported MIC value.
Tested on: Staphylococcus aureus
TEST: In vitro antimicrobial activity against Staphylococcus aureus X1
Type: functional
Return type: number; implicit unit µg/mL.

CC[C@H]1OC(=O)C[C@@H](O)[C@H](C)[C@@H](O[C@@H]2O[C@H](C)[C@@H](O[C@H]3C[C@@](C)(O)[C@@H](O)[C@H](C)O3)[C@H](N(C)C)[C@H]2O)[C@@H](CCSc2ccccc2)C[C@@H](C)C(=O)/C=C/C(C)=C/[C@@H]1CO[C@@H]1O[C@H](C)[C@@H](O)[C@@H](OC)[C@H]1OC: 1
CC[C@H]1OC(=O)C[C@@H](O)[C@H](C)[C@@H](O[C@@H]2O[C@H](C)[C@@H](O)[C@H](N(C)C)[C@H]2O)[C@@H](CCOS(=O)(=O)c2ccc(C)cc2)C[C@@H](C)C(=O)/C=C/C(C)=C/[C@@H]1CO[C@@H]1O[C@H](C)[C@@H](O)[C@@H](OC)[C@H]1OC: 0.5
CC[C@H]1OC(=O)C[C@@H](O)[C@H](C)[C@@H](O[C@@H]2O[C@H](C)[C@@H](O[C@H]3C[C@@](C)(O)[C@@H](O)[C@H](C)O3)[C@H](N(C)C)[C@H]2O)[C@@H](CCNCCc2ccccc2)C[C@@H](C)C(=O)/C=C/C(C)=C/[C@@H]1C: 4

# ---- query compound ----
query: Report value: MIC, system: Staphylococcus aureus, compound: CC[C@H]1C[C@@H](C)C(=O)/C=C/C(C)=C/[C@H](CO[C@@H]2O[C@H](C)[C@@H](O)[C@@H](O)[C@H]2OC)[C@@H](CC)OC(=O)C[C@@H](O)[C@H](C)[C@H]1O[C@@H]1O[C@H](C)[C@@H](O)[C@H](N(C)C)[C@H]1O
result: 0.25

* * *

Test system: Streptococcus pyogenes
TEST: In vitro antimicrobial activity against Streptococcus pyogenes C203
Format: functional
QUANTITY MEASURED: MIC (µg/mL)
Return type: number; implicit unit µg/mL.

CC[C@H]1OC(=O)C[C@@H](O)[C@H](C)[C@@H](O[C@@H]2O[C@H](C)[C@@H](O)[C@H](N(C)C)[C@H]2O)[C@@H](CCOC(C)=O)C[C@@H](C)C(=O)/C=C/C(C)=C/[C@@H]1CO[C@@H]1O[C@H](C)[C@@H](O)[C@@H](OC)[C@H]1OC: 0.12
CC[C@H]1OC(=O)C[C@@H](O)[C@H](C)[C@@H](O[C@@H]2O[C@H](C)[C@@H](O)[C@H](N(C)C)[C@H]2O)[C@@H](CC=O)C[C@@H](C)C(=O)/C=C/C(C)=C/[C@@H]1CO[C@@H]1O[C@H](C)[C@@H](O)[C@@H](OC)[C@H]1OC: 0.25
CC[C@H]1OC(=O)C[C@@H](O)[C@H](C)[C@@H](O[C@@H]2O[C@H](C)[C@@H](O)[C@H](N(C)C)[C@H]2O)[C@@H](CC=O)C[C@@H](C)C(=O)/C=C/C(C)=C/[C@@H]1CO[C@@H]1O[C@H](C)[C@@H](O)[C@@H](O)[C@H]1OC: 0.25
CC[C@H]1OC(=O)C[C@@H](O)[C@H](C)[C@@H](O[C@@H]2O[C@H](C)[C@@H](O[C@H]3C[C@@](C)(O)[C@@H](O)[C@H](C)O3)[C@H](N(C)C)[C@H]2O)[C@@H](CCOc2ccccc2)C[C@@H](C)C(=O)/C=C/C(C)=C/[C@@H]1CO[C@@H]1O[C@H](C)[C@@H](O)[C@@H](OC)[C@H]1OC: 2
CCOC(=O)c1ccc(OCC[C@H]2C[C@@H](C)C(=O)/C=C/C(C)=C/[C@H](CO[C@@H]3O[C@H](C)[C@@H](O)[C@@H](OC)[C@H]3OC)[C@@H](CC)OC(=O)C[C@@H](O)[C@H](C)[C@H]2O[C@@H]2O[C@H](C)[C@@H](O)[C@H](N(C)C)[C@H]2O)cc1: 0.5

query: // Input: CC[C@H]1OC(=O)C[C@@H](O)[C@H](C)[C@@H](O[C@@H]2O[C@H](C)[C@@H](O)[C@H](N(C)C)[C@H]2O)[C@@H](CCOc2cccc(Oc3ccccc3)c2)C[C@@H](C)C(=O)/C=C/C(C)=C/[C@@H]1CO[C@@H]1O[C@H](C)[C@@H](O)[C@@H](OC)[C@H]1OC . Output its MIC only.
result: 0.25

query: Report MIC, nothing else, for this compound: CC[C@H]1OC(=O)C[C@@H](O)[C@H](C)[C@@H](O[C@@H]2O[C@H](C)[C@@H](O[C@H]3C[C@@](C)(O)[C@@H](O)[C@H](C)O3)[C@H](N(C)C)[C@H]2O)[C@@H](CCNCCc2ccccc2)C[C@@H](C)C(=O)/C=C/C(C)=C/[C@@H]1C
result: 2

query: Please give measured MIC of the following entry: CC[C@H]1OC(=O)C[C@@H](O)[C@H](C)[C@@H](O[C@@H]2O[C@H](C)[C@@H](O[C@H]3C[C@@](C)(O)[C@@H](O)[C@H](C)O3)[C@H](N(C)C)[C@H]2O)[C@@H](CCOc2ccc([N+](=O)[O-])cc2)C[C@@H](C)C(=O)/C=C/C(C)=C/[C@@H]1CO[C@@H]1O[C@H](C)[C@@H](O)[C@@H](OC)[C@H]1OC
result: 2

query: State its MIC: CC[C@H]1OC(=O)C[C@@H](O)[C@H](C)[C@@H](O[C@@H]2O[C@H](C)[C@@H](O[C@H]3C[C@@](C)(O)[C@@H](O)[C@H](C)O3)[C@H](N(C)C)[C@H]2O)[C@@H](CC=O)C[C@@H](C)C(=O)/C=C/C(C)=C/[C@@H]1CO[C@@H]1O[C@H](C)[C@@H](O)[C@@H](O)[C@H]1OC
result: 0.25

query: Complete the entry with MIC for CC[C@H]1OC(=O)C[C@@H](O)[C@H](C)[C@@H](O[C@@H]2O[C@H](C)[C@@H](O)[C@H](N(C)C)[C@H]2O)[C@@H](CCF)C[C@@H](C)C(=O)/C=C/C(C)=C/[C@@H]1CO[C@@H]1O[C@H](C)[C@@H](O)[C@@H](OC)[C@H]1OC
result: 0.25

query: Recall and state the measured MIC for CC[C@H]1OC(=O)C[C@@H](O)[C@H](C)[C@@H](O[C@@H]2O[C@H](C)[C@@H](O)[C@H](N(C)C)[C@H]2O)[C@@H](CCOc2cc(Cl)cc(Cl)c2)C[C@@H](C)C(=O)/C=C/C(C)=C/[C@@H]1CO[C@@H]1O[C@H](C)[C@@H](O)[C@@H](OC)[C@H]1OC .
result: 0.12

query: Item CC[C@H]1OC(=O)C[C@@H](O)[C@H](C)[C@@H](O[C@@H]2O[C@H](C)[C@@H](O[C@H]3C[C@@](C)(O)[C@@H](O)[C@H](C)O3)[C@H](N(C)C)[C@H]2O)[C@@H](CCOc2ccc(C=O)cc2)C[C@@H](C)C(=O)/C=C/C(C)=C/[C@@H]1CO[C@@H]1O[C@H](C)[C@@H](O)[C@@H](OC)[C@H]1OC : provide MIC
result: 1

query: Give the value of MIC reported for the following: CC[C@H]1OC(=O)C[C@@H](O)[C@H](C)[C@@H](O[C@@H]2O[C@H](C)[C@@H](O)[C@H](N(C)C)[C@H]2O)[C@@H](CC=O)C[C@@H](C)C(=O)/C=C/C(C)=C/[C@@H]1C
result: 0.25

query: Let me know recorded MIC for CC[C@H]1OC(=O)C[C@@H](O)[C@H](C)[C@@H](O[C@@H]2O[C@H](C)[C@@H](O)[C@H](N(C)C)[C@H]2O)[C@@H](CCOS(=O)(=O)c2ccc(C)cc2)C[C@@H](C)C(=O)/C=C/C(C)=C/[C@@H]1CO[C@@H]1O[C@H](C)[C@@H](O)[C@@H](OC)[C@H]1OC , thanks.
result: 1
